system: Hck (UniProt P08631)
Sequence (P08631 whole entry, looked up): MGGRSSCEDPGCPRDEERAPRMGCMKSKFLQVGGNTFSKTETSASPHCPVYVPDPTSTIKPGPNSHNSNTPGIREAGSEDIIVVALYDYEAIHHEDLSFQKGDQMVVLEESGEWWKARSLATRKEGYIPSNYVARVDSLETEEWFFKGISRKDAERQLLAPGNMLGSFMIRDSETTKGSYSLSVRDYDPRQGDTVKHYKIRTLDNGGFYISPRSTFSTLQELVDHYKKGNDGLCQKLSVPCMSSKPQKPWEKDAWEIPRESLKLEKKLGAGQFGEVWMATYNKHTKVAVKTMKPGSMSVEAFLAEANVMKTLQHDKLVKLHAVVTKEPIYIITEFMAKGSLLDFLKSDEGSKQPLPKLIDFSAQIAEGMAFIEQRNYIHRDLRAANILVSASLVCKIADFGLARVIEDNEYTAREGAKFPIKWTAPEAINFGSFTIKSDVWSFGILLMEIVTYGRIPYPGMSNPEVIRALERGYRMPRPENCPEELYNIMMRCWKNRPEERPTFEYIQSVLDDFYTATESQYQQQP
method notes: phosphorylation enrichment, bacterial display (enrichment ratio); higher = better substrate or ligand; peptides without Tyr show the background
Would you kindly list phosphorylation enrichment for each of these sequences?
Answer using only a numeral; do not append any unit.

// sample EFISECCGEII [EZH2_Y641_Y641C] , its phosphorylation enrichment was 0.55

// recorded phosphorylation enrichment for ADAHHYLCKEV [JAK2_Y382] : 0.549

In plain terms, AHAGEYGEEAL [HBA1_Y25_A27E] has a documented phosphorylation enrichment of 0.821

phosphorylation enrichment reading for KDHLDYKFQPR [SOX9_Y172_P170L_YF] : 0.352

phosphorylation enrichment for YSPCDYQPCLA [TNS1_Y798_Y796C] is 0.838

Entry CKLVDYDSARH [BIN1_Y150_R145C] — recorded phosphorylation enrichment = 0.414

phosphorylation enrichment reading for YFCRWYRNRKS [EREG_Y144] : 0.741

Query ACLSLYGGFVE [MVD_Y164_R161L] yields phosphorylation enrichment of 3.83

// recorded phosphorylation enrichment for EFNINYNNELP [THG1L_Y228] : 0.429

Record KDIENYIQDGK [RAD50_Y964] . Reported phosphorylation enrichment: 0.45

response.value for SMAKYYASGIA [ACADSB_Y373_E376G] (field: phosphorylation enrichment) = 0.463

Recorded phosphorylation enrichment (sequence KHCEDYVFSYN [DSC1_Y846_C848F] ): 0.521

Record summary for SSSAIYDNPNL [DCP1B_Y191] : reported phosphorylation enrichment = 9.85

Short answer for RHSGSYLVTSV [APC_Y2838] : phosphorylation enrichment was 0.616

Item: PEADKYHLTYA [FGG_Y300_R301H] | phosphorylation enrichment: 0.701

For reference, reported phosphorylation enrichment for VNRSGYTLIRK [ATP6V0A2_Y688] stands at 0.429

What the record says about QRIFQYIQSRF [DYRK1B_Y273_YF] : phosphorylation enrichment is 0.572

// KMLEKYKERLN [TLK2_Y259] : phosphorylation enrichment value = 0.492

The sequence listed as DLTQDSEEWKR [ORC6_Y232_Y232S] shows phosphorylation enrichment equal to 0.614

Sample LTSKPYAFTAR [NDUFS1_Y236] ; phosphorylation enrichment observed: 0.58

// phosphorylation enrichment value for LLASGYDSPIN [ABLIM1_Y638_R637G] : 0.783

VFFFSYLLKNH [PTEN_Y180_YF] yielded phosphorylation enrichment of 0.391

The recorded phosphorylation enrichment for TLCLCYKETEE [ATP8B1_Y658_I661T] is 0.647

Measured phosphorylation enrichment, TEYIQYVRRKN [MAX_Y73_M74V] : 0.589

Entry PKGWNYELPAT [PROM1_Y34_A31G] ; phosphorylation enrichment = 0.516

Looking up KRAIGYYSATS [FAM120A_Y327] , I found its phosphorylation enrichment recorded as 0.406

phosphorylation enrichment recorded for this sequence, GREEFYSTHPH [LRRK2_Y1402] , is 0.679

Recorded phosphorylation enrichment (sequence IQRSLYDRPAS [PDGFRA_Y762] ): 1.59

phosphorylation enrichment recorded for this sequence, NTGNFYDLFGG [PTPN11_Y63_D61N_YF] , is 4.7

// PFSNSYENSLI [EPOR_Y489_P488S_YF] : phosphorylation enrichment value = 0.78

// sample HEPKGYNANFC [TGFB2_Y341] , its phosphorylation enrichment was 0.553

For record YRTPGYREVVI [TNS2_Y673_A670T] the listed phosphorylation enrichment is 0.341

Recorded result, VDSTEYEVASQ [SLC7A7_Y7] , phosphorylation enrichment: 0.549

Please fill in: phosphorylation enrichment reported for LIHTKCPQLLP [AHCY_Y143_Y143C] = 0.509

Lab note: measured phosphorylation enrichment of FLAVGYHKPYI [IDS_Y225_H229Y] was 0.399

For record EHTILYSNNST [KANSL1_Y223_T221I] the listed phosphorylation enrichment is 0.43

sequence QEIATYRRQLE [KRT14_Y415_L418Q] , phosphorylation enrichment observed: 0.559

// SLQSEYVHYGG [CDC14A_Y591] : phosphorylation enrichment value = 0.927

Note to self: phosphorylation enrichment recorded for KKARAYRPGIE [FLNA_Y287_G288R] was 0.323

phosphorylation enrichment measured on CTTIHYNFMCT [TP53_Y234_N239T_YF] = 0.501

The sequence NTPNTYLRVNV [ADD2_Y440] showed phosphorylation enrichment equal to 0.428

get_value(item= CDTKLYTSAPN [DNTTIP2_Y427] , readout=phosphorylation enrichment) returns 0.776

// VMLENYSNLLS [ZFP69_Y109_V113L] : phosphorylation enrichment value = 0.422

The reported phosphorylation enrichment of the sequence MCVKSYTIHFS [F5_Y2153_Y2149C_YF] was 0.546

Short answer for RENGPYYTSYP [GDAP2_Y487] : phosphorylation enrichment was 1.98

----------
system: FGFR3 (UniProt P22607)
Sequence (P22607 whole entry, looked up): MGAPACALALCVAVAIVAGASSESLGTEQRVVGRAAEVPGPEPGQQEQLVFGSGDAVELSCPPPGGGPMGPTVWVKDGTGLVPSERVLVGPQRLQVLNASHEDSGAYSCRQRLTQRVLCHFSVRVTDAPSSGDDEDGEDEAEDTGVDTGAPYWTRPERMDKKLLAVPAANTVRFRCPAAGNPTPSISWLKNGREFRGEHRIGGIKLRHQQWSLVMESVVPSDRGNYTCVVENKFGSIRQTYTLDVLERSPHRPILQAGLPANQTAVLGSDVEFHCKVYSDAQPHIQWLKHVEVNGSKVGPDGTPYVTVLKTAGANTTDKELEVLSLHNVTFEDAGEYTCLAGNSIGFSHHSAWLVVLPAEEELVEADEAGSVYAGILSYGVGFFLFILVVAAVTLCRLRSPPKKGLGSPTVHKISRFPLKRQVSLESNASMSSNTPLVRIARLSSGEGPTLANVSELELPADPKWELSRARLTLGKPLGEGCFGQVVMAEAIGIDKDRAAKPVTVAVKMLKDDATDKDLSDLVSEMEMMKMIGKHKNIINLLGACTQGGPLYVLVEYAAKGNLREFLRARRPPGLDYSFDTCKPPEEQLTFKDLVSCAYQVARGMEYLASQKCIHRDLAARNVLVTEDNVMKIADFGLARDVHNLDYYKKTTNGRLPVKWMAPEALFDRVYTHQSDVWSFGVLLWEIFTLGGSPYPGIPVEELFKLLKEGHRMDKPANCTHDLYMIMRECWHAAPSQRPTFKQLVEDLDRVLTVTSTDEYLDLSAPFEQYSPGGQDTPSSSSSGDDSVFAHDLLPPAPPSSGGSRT
method notes: phosphorylation enrichment, bacterial display (enrichment ratio); higher = better substrate or ligand; peptides without Tyr show the background
Label criterion met when phosphorylation enrichment is at or above 0.7; otherwise label criterion not met.

Does the reported phosphorylation enrichment for LKALHYMAQTS [SACS_Y3367_V3369A] fall at or above the 0.7 mark?
criterion met

Could you please find out whether TEFSQYMRRKN [MAX_Y73_I71S_YF] has phosphorylation enrichment that meets 0.7 or exceeds it?
criterion not met

Say whether PLLLSYFLIKW [NUP160_Y773_YF] shows phosphorylation enrichment of 0.7 or more.
criterion met

phosphorylation enrichment >= 0.7 for LIGTPYWMAPE [PAK5_Y608_V604I] ?
criterion met

Determine whether measured phosphorylation enrichment meets or exceeds 0.7 for LTFHMYADPNF [SOS1_Y618_YF]
criterion met

Quick check, phosphorylation enrichment >= 0.7? IYLGAYDRFLP [SLC22A5_Y486_V481I]
criterion met

Kindly determine if phosphorylation enrichment recorded for EFFDGYWEFSV [ITGA2B_Y265_G267E_YF] is above or exactly 0.7.
criterion met

Quick check: does CDTKLYTSAPN [DNTTIP2_Y427] have phosphorylation enrichment greater than or equal to 0.7?
criterion met

I'd appreciate it if you could say whether SLQSEYVHFGG [CDC14A_Y591_YF] has phosphorylation enrichment at least equal to 0.7.
criterion met

Quick check, phosphorylation enrichment >= 0.7? GISDEYHMIRH [GCDH_Y398_V400M]
criterion met

State whether the measured phosphorylation enrichment reaches 0.7, counting equality as reaching it, for QCTSHYPEHVC [SART3_Y541_D540H]
criterion not met

Please tell me: is the sequence SEKIVYGHVDD [ACO2_Y71_L74V] at or over 0.7 in terms of phosphorylation enrichment?
criterion not met

Answer whether phosphorylation enrichment of SRVTQYERNFE [SNX1_Y463_D466N] is greater than or equal to 0.7.
criterion not met

Could you tell me if the measured phosphorylation enrichment of KNEVLYDGENH [ARFGEF1_Y314] reaches 0.7 or more?
criterion not met

Form field: phosphorylation enrichment at least 0.7? Entry: LVMFTYAIFGM [SCN1A_Y1684_I1683T]
criterion met

Could you please find out whether VRFMAYTDEIF [F8_Y450_T454I] has phosphorylation enrichment that meets 0.7 or exceeds it?
criterion met

Quick check, phosphorylation enrichment >= 0.7? LRRFIYRPPDQ [OTOF_Y1231_R1236Q]
criterion not met

Determine whether this sequence has phosphorylation enrichment no lower than 0.7: KDGIGYISAAE [CALM2_Y100_N98I]
criterion not met

----------
Please respond with reported SH2 binding enrichment for every item in the list.
system: Grb2 SH2 (UniProt P62993)
Sequence (P62993 whole entry, looked up): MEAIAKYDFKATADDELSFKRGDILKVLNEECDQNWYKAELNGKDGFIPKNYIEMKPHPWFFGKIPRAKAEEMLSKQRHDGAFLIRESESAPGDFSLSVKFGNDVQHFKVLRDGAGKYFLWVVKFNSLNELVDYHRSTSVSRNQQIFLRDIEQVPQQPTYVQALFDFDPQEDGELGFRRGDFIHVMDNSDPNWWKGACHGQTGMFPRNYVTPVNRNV
method notes: SH2 binding enrichment of the phosphorylated peptide, bacterial display (enrichment ratio); higher = better substrate or ligand; peptides without Tyr show the background
Just the number, please, no unit attached.

In plain terms, EAVLHYKHQNQ [MTOR_Y1804] has a documented SH2 binding enrichment of 0.904

So, NALAQYQEMEK [BBS4_Y395] ? Its SH2 binding enrichment was 0.795

YARECYSALPQ [SARS2_Y52_G51C] has a reported SH2 binding enrichment of 0.74

The recorded SH2 binding enrichment for PVDNLYAEPAV [PRPS1_Y146] is 1.04

SH2 binding enrichment recorded for this sequence, GSIQQYIYKQE [PRG4_Y1271] , is 0.919

SH2 binding enrichment in this record for RLLRGYNQSAY [HLA-C_Y137_D138N] : 1.11

SH2 binding enrichment reading for LRTAVHHEILI [CREBBP_Y1450_Y1450H] : 0.973

Reported SH2 binding enrichment of ISKTWYSAEQF [CD207_Y217_P213S] : 0.822

// recorded SH2 binding enrichment for PSSNLYYRCLT [CNGA3_Y168_W171C] : 0.936

// SH2 binding enrichment value for ANARMYGVLPW [PLP1_Y207_D203N] : 0.814

# SH2 binding enrichment of EDKSIYRRGAR [PRKCI_Y125] = 0.713

Just so you know, measured SH2 binding enrichment for ILKPDYQPLAI [HYDIN_Y1072] came out at 0.814

Input SKNSKYNAEST [PSEN1_Y315] . Output SH2 binding enrichment: 0.759

Sourced from the supplement of paper PMC10065799
